System: Enterococcus faecium ATCC 700221 (VRE)
Assay notes: Broth microdilution MIC, E. faecium ATCC 700221 (VRE)
Assay type: cell-based
Condition description: Enterococcus faecium; broth microdilution, 37° C., 20 hours; read-out: MIC E. faecium ATCC 700221 (VRE)
Hi! Could you tag entries with MIC below 4 µg/mL as true (1), and those at or above as false (0)? Much appreciated.

Before answering, review these 3 worked examples.
# Molecule, Target system, Class name
rows = [
    ("Cn1ncc2nc(NCc3cccnc3)[nH]c(=O)c21 [Compound 5]", "Enterococcus faecium ATCC 700221 (VRE)", "false (0)"),
    ("Cn1ncc2nc(NCc3ccc4[nH]ncc4c3)[nH]c(=O)c21 [Compound 13]", "Enterococcus faecium ATCC 700221 (VRE)", "false (0)"),
    ("CN1CC2CC1CN2CCn1ncc2nc(NCc3ccc(Cl)c(Cl)c3)[nH]c(=O)c21.Cl.Cl (stereo not drawn) [Compound 69]", "Enterococcus faecium ATCC 700221 (VRE)", "false (0)"),
]

Exercise: Is it true that MIC reported for Cn1ncc2nc(NCc3cnccn3)[nH]c(=O)c21 [Compound 12] is less than 4 µg/mL?
Solution: false (0)

Exercise: Is it true that MIC reported for O=C(NCCn1ncc2nc(NCc3ccc(Cl)c(Cl)c3)[nH]c(=O)c21)c1cnoc1 [Compound 86] is less than 4 µg/mL?
Solution: false (0)
